System: CP305
test name: qHTS profiling for inhibitors of Plasmodium falciparum proliferation (AID 504749); also: nearly all actives have a fitted effect of over 60% in size
condition description: P. falciparum in erythrocytes, SYBR Green DNA, 72 h; series mostly up to 28.7 µM
Records with an inconclusive call do not appear. Activity calls are given as the source filed them. Calls follow the shape of the dose curve; as a rule, active = well fitted inhibition curve with a large enough effect; inconclusive = small, poorly fitted or top-dose-only effect; inactive = flat fitted curve, though single readings scatter.
Bench note: report the call from Y for active, N for inactive

Look over these answered cases.
# molecule, measured target, category
measured = [
    ("CCCC(C)(COC(N)=O)COC(=O)NC(C)C (configuration not stated)", "CP305", "N"),
    ("NP(N)(=O)NC(=O)c1ccc(F)cc1", "CP305", "N"),
    ("CC(C)=CC1C(C(=O)OCc2cccc(Oc3ccccc3)c2)C1(C)C (configuration not stated)", "CP305", "N"),
    ("Cn1c(CCCC(=O)O)nc2cc(N(CCCl)CCCl)ccc21", "CP305", "N"),
    ("NCC(O)c1ccc(O)cc1 (configuration not stated)", "CP305", "N"),
    ("CC(=O)Nc1cc([As](=O)(O)O)ccc1O", "CP305", "N"),
    ("Oc1ccccc1-c1ccccc1", "CP305", "N"),
    ("CC(C)(C)CC(C)(C)c1ccc(O)cc1", "CP305", "N"),
    ("CCN(CC)CCN1C(=O)CN=C(c2ccccc2F)c2cc(Cl)ccc21", "CP305", "N"),
    ("OCCOc1ccccc1", "CP305", "N"),
]

Hi, do you know how CCN(C(C)=O)c1cccc(-c2ccnc3c(C#N)cnn23)c1 came out in this test?
N

Hi, do you know how Oc1cccc2cccnc12 came out in this test?
N

Hi, do you know how O=P1(NCCCl)OCCCN1CCCl (configuration not stated) came out in this test?
N

Hi, do you know how C#CCOC(C(=O)OCCN(C)C)(c1ccccc1)c1ccccc1 came out in this test?
N

Hi, do you know how NN=C(N)N came out in this test?
N

Hi, do you know how O=C(NC(O)C(Cl)(Cl)Cl)NC(O)C(Cl)(Cl)Cl (configuration not stated) came out in this test?
N

Hi, do you know how CC(C)CC(N(C)C)C1(c2ccc(Cl)cc2)CCC1 (configuration not stated) came out in this test?
N

Hi, do you know how CCN(CC)CCOC(=O)C(O)(c1ccccc1)c1ccccc1 came out in this test?
N

Hi, do you know how c1ccc(C2CC2)c(OCC2=NCCN2)c1 came out in this test?
N

Hi, do you know how O=c1[nH]c2ccccc2n1C1CCN(CCCC(c2ccc(F)cc2)c2ccc(F)cc2)CC1 came out in this test?
N

====

test name: Cell Viability - Mesenchymal (AID 546);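 also: cells exposed to compound for 40 hours before reading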
condition description: mesenchymal cells viability, qHTS; series mostly up to 91.7 µM
Results filed as inconclusive are left out. The source made the active and inactive calls. The call rests on the fitted dose curve; in most records, active means well fitted cell-killing curve with a large enough effect; inconclusive means small, poorly fitted or top-dose-only effect; inactive means flat fitted curve, though single readings scatter.
recorded metric: outcome

Below, 5 compounds whose answers are already recorded.
# compound, recorded metric, value measured
records = [
    ("CCCC(C)(COC(N)=O)COC(=O)NC(C)C (stereo unspecified)", "outcome", "inactive"),
    ("CCOP(=S)(OCC)Oc1cc(C)nc(C(C)C)n1", "outcome", "inactive"),
    ("C[C@]12C/C(=C/O)C(=O)C[C@@H]1CC[C@@H]1[C@@H]2CC[C@@]2(C)[C@H]1CC[C@]2(C)O", "outcome", "inactive"),
    ("CNCC(O)c1ccc(O)cc1 (stereo unspecified)", "outcome", "inactive"),
    ("c1ccc2c(c1)Nc1ccccc1S2", "outcome", "inactive"),
]

Now look at this entry.
Give its outcome value. Item: Oc1ccccc1-c1ccccc1
inactive
